Below: a set of entries, each annotated with reported SPOT signal as a fraction of Bim BH3's signal on the same receptor and array.
Target or test system: T1, Mcl-1, Q07820
T1 chain: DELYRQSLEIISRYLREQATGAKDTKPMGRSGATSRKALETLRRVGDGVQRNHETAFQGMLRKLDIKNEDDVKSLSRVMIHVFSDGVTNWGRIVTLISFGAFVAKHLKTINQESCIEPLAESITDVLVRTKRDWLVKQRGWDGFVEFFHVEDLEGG
Protocol description: peptide SPOT array, c-Myc-tagged receptor at 1 uM or 100 nM, anti-c-Myc-Cy3
# print the numeric value only

| Binder | Recorded value |
| --- | --- |
| FRLAQMCGLHIVVHADELEELINYYQ [CLTC] | 0.02 |
| RTVESEAASYLDQISRYYITRAKLVS [PSME3] | 0.15 |
| GLTWDPVGKYIASQLDDRSLKVWRTL [HIRA] | 0.55 |
| ACGDSVLARMDRELGDSLRRPQLRLW [SLC19A1] | 0.15 |
| ADAIRPRCVEDRHLCDDFINGNKKKW [MCF2L2] | 0.06 |
| LFRRRDISSSLNSLADSNAREFEEES [MTA2] | 0.04 |
| LGKRTGTVQVLKRSGRELIENSRDDT [MACF1] | 0.05 |
| QISTRLPSDYIYGIGEQVHKRFRHDL [SI] | 0.12 |

Using the record for TPSRSALSSELSLVGDTTGDTLEKFV [CREBBP] , state its measured SPOT signal as a fraction of Bim BH3's signal on the same receptor and array.
0.01

Using the record for RAGELDRARELMRIGKRFGAVLEALE [CC2D1B] , state its measured SPOT signal as a fraction of Bim BH3's signal on the same receptor and array.
0.06

Using the record for KYDPSKYCHNLKKIGEDFSNTIPISS [NOL8] , state its measured SPOT signal as a fraction of Bim BH3's signal on the same receptor and array.
0.03

Using the record for LALMMQLARELKTLARDLGMAVVVTN [RAD51L3] , state its measured SPOT signal as a fraction of Bim BH3's signal on the same receptor and array.
0.12

Using the record for ADVHGIWSRLDCDFGDEFEVLDTTGE [UBA6] , state its measured SPOT signal as a fraction of Bim BH3's signal on the same receptor and array.
0.04

Using the record for LFIPLNISCLLKEGSEHLFDSFEPET [DEPDC5] , state its measured SPOT signal as a fraction of Bim BH3's signal on the same receptor and array.
0.02
